test: chemical genetic growth profiling, strain panel (AID 1159580);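 further: tested at 20 µM; growth read once vehicle control cultures reached saturation at 30 °C; 1 = growth at the plate median or of vehicle wells; lower values mean less growth of the strain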; conditions: S. cerevisiae deletion strains, growth OD, locus YPL241C, strain CIN2, active compounds read low
Screen size: about 5,500 compounds; about 2,000 (36%) were called active. Another 18% or so got no clear call; they are omitted. This is one part of the list.
normalized growth overview
I only need the number, thanks.

COMPOUND: CC(C)[C@@H]1CC[C@@H](C)C[C@H]1OC(=O)c1ccccc1
normalized growth: 1.02

# input Tell me the measured normalized growth of Cn1c(=O)c2c(ncn2CCCl)n(C)c1=O , please.
# output 1

# input Report normalized growth for O=C1C=CC(=O)c2c(O)cccc21 please.
# output 0.987

# input Look at this compound and give its reported normalized growth. NC(CCP(=O)(O)O)C(=O)O (configuration not stated)
# output 1

# input I would be grateful if you could share the reported normalized growth for Cn1c(=O)[nH]c2ncn(C)c2c1=O .
# output 1.01

# input Could you share which normalized growth value was measured for COc1ccc(NC(=O)/C=C/c2ccc(Cl)cc2)cc1 ?
# output 1.01

# input Tell me the measured normalized growth of C[C@]12CC[C@@H](O)C[C@H]1CCc1ccccc12 , please.
# output 1.02

---

assay: chemical genetic growth profiling, strain panel (AID 1159580);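 further: tested at 20 µM; growth read once vehicle control cultures reached saturation at 30 °C; 1 = growth at the plate median or of vehicle wells; lower values mean less growth of the strain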; conditions: S. cerevisiae deletion strains, growth OD, locus YNL067W, strain RPL9B, active compounds read low
Out of some 5,500 compounds screened, about 2,000 (36%) were called active. Not shown: some 18% with an inconclusive outcome. The list shows a part of the results.
Listing: normalized growth of selected compounds
Please reply with the number alone, leaving off any unit.

Example entries begin here.
COMPOUND: CC(C)=CCC/C(C)=C/CO
READING: 1.01

COMPOUND: COc1ccccc1OCC(O)COC(N)=O (centres undefined)
READING: 0.986

COMPOUND: CC[C@H]1OC(=O)[C@H](C)[C@@H](O[C@H]2C[C@@](C)(OC)[C@@H](O)[C@H](C)O2)[C@H](C)[C@@H](O[C@@H]2O[C@H](C)C[C@H](N(C)C)[C@H]2O)[C@](C)(O)C[C@@H](C)/C(=N/OCOCCOC)[C@H](C)[C@@H](O)[C@]1(C)O
READING: 0.986

COMPOUND: CC(C)c1cc2c(c(O)c1O)[C@@]1(C(=O)O)CCCC(C)(C)C1CC2 (some centres undefined)
READING: 0.972

COMPOUND: COc1cc2cccc(OC)c(=O)c2c(OC)c1OC
READING: 0.992

COMPOUND: Cc1c(NC(C)C)c(=O)n(-c2ccccc2)n1C
READING: 0.986

# input Can you look up the measured normalized growth of Cn1c(=O)[nH]c2nc[nH]c2c1=O for me?
# output 1.02

# input What does the record list as normalized growth for CC(C)Cn1c(=O)n(C)c(=O)c2[nH]cnc21 ?
# output 0.999

# input Looking for the measured normalized growth of CNC(=O)N(C)c1nnc(C(C)(C)C)s1 , can you help?
# output 1.02

# input Requested read-out: normalized growth. Entry: CC(NC(C)(C)C)C(=O)c1cccc(Cl)c1 (centres undefined)
# output 1.01

# input Give the measured normalized growth of COC(=O)CC1C(C)(C)C(=O)C2CC3(O)C4=CC(=O)OC(c5ccoc5)C4(C)CCC3C1(C)C2=O (centres undefined) .
# output 1.01

# input Request the reported normalized growth associated with O=C1NS(=O)(=O)c2ccccc21
# output 1.01

# input Sample OC[C@H]1O[C@@H](Oc2ccc(O)cc2)[C@H](O)[C@@H](O)[C@@H]1O — what was its normalized growth?
# output 1.02

# input What normalized growth value was documented for this compound, COc1cc2c(cc1OC)C(C)NCC2 (centres undefined) ?
# output 1.02

# input Given the compound O=C(/C=C/c1ccc(O)cc1)c1ccc(O)cc1O , what is its reported normalized growth?
# output 1.01
